target: Human immunodeficiency virus type 1 protease (Human immunodeficiency virus 1)
Property: Ki; scope: individual compounds

Compound | Study System | Measured Metric | Value Measured
C[C@H](N)C(=O)N[C@@H](C)C(=O)N[C@@H](Cc1ccccc1)[C@@H](O)CCC(=O)NC(c1ccccc1)c1nc2ccccc2[nH]1 (stereo not given in full) | Human immunodeficiency virus type 1 protease (Human immunodeficiency virus 1) | Ki | 5370 nM
Cc1cccc(C(NC(=O)CC[C@H](O)[C@H](Cc2ccccc2)NC(=O)CC(NC(=O)c2ccc3ccccc3n2)C(=O)O)c2cc3ccccc3[nH]2)c1 (stereo not given in full) | Human immunodeficiency virus type 1 protease (Human immunodeficiency virus 1) | Ki | 39 nM
O=C(CC[C@H](O)[C@H](Cc1ccccc1)NC(=O)CC(NC(=O)c1ccc2ccccc2n1)C(=O)O)NC(c1ccccc1)c1cc2ccccc2[nH]1 (stereo not given in full) | Human immunodeficiency virus type 1 protease (Human immunodeficiency virus 1) | Ki | 200 nM
O=C(CC[C@H](O)[C@H](Cc1ccccc1)NC(=O)CC(NC(=O)c1ccc2ccccc2n1)C(=O)O)NC(c1cccc(C(F)(F)F)c1)c1cc2ccccc2[nH]1 (stereo not given in full) | Human immunodeficiency virus type 1 protease (Human immunodeficiency virus 1) | Ki | 33 nM

Continue with the compound presented below.
Ask: Report Ki for C[C@H](N)C(=O)N[C@@H](C)C(=O)N[C@@H](Cc1ccccc1)[C@@H](O)CCC(=O)NC(c1ccccc1)c1cc2ccccc2[nH]1 (stereo not given in full) please.
Result: 43 nM
